Just for reference, patent US20250018046A1 is where these values come from.

biological target: IRAK4 (Homo sapiens, UniProt Q9NWZ3); construct: knocking-in a HiBiT fusion tag into the C-terminal of the IRAK4 gene in 293T cells; host or cells: 293T cells, knock-in of HiBiT at the endogenous IRAK4 locus; assay: IRAK4 degradation assay using the HiBiT Method; assay type: cell-based; conditions: 293T cells expressing HiBiT-tagged IRAK4; 6-hour incubation; Nano-Glo HiBiT Lytic Assay luminescence
Sequence (Q9NWZ3 whole entry, the tested form may be a part): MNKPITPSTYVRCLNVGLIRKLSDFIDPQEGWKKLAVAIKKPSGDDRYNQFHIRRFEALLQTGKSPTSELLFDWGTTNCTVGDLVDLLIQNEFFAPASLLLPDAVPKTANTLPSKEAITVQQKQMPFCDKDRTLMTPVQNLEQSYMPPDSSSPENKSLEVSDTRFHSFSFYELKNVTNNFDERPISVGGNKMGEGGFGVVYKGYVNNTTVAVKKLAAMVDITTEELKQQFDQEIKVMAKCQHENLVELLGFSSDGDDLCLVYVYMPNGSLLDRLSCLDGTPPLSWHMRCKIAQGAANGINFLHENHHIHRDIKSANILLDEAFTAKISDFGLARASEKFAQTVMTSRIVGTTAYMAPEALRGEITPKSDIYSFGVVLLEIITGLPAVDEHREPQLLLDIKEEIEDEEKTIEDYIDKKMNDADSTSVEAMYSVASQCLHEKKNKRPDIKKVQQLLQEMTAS
Assay Metric: DC50

Known DC50 results, listed for orientation:
Compound	Tested System	DC50
CC(C)Oc1cc2nc(C3CCN(CCN4CCC(c5ccc(C6CCC(=O)NC6=O)cc5F)CC4)CC3)cn2cc1NC(=O)c1cccc(C(F)(F)F)n1 (stereo not drawn)	IRAK4 (Homo sapiens, UniProt Q9NWZ3)	100 to 500 nM
CC(C)Oc1cc2nc(C3CCN(CC(=O)N4CCC(c5ccc(NC6CCC(=O)NC6=O)cc5)CC4)CC3)cn2cc1NC(=O)c1cccc(C(F)F)c1 (stereo not drawn)	IRAK4 (Homo sapiens, UniProt Q9NWZ3)	10 to 100 nM
CC(C)Oc1cc2nc(C3CCN(C(=O)CN4CCN(c5ccc(OC6CCC(=O)NC6=O)cc5)CC4)CC3)cn2cc1NC(=O)c1cccc(C(F)(F)F)n1 (stereo not drawn)	IRAK4 (Homo sapiens, UniProt Q9NWZ3)	100 to 500 nM

Next up:
Return DC50 for the following compound: CC(C)Oc1cc2nc(C3CCN(CCN4CCC(c5ccc(NC6CCC(=O)NC6=O)cc5)CC4)CC3)cn2cc1NC(=O)c1cccc(C(F)(F)F)n1 (stereo not drawn)
100 to 500 nM
